So I've got a bunch of molecules here, and I need their IC50 values.
Biological target: human ERα (Homo sapiens, UniProt P03372)
Sequence (P03372 whole entry): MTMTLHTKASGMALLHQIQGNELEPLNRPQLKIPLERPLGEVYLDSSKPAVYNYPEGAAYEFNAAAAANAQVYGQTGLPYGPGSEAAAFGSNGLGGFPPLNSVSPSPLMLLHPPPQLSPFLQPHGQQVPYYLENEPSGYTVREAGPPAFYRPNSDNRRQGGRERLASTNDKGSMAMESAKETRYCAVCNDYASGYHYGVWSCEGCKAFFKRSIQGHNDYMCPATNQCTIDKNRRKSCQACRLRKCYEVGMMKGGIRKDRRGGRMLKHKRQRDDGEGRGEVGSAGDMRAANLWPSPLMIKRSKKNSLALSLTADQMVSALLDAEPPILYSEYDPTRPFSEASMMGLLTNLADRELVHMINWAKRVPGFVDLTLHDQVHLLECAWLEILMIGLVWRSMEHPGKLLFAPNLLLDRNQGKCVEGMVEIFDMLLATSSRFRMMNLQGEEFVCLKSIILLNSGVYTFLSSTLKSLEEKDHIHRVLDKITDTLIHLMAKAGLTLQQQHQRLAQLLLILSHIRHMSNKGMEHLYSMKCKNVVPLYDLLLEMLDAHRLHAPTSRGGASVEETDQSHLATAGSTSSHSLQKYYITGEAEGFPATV
Experiment: NF-κB luciferase reporter (ER/NF-KB-luc) in Ad5-wt-hERα infected HAECT-1 cells
Details: ER/NF-KB-luc IC50, Ad5-wt-ER infected HAECT-1 cells, IL-1β
Write it as a number; the unit µM goes unstated.

Value lookup for IC50; key = CCCn1nc(-c2ccc(O)cc2C)c2cccc(Cl)c21 0.255

Next molecule up: CCCn1nc(-c2ccc(O)cc2C)c2cccc(C(F)(F)F)c21 0.022

Next molecule up: Cn1nc(-c2ccc(O)cc2O)c2cc(F)ccc21 0.349

Next molecule up: CCCn1nc(-c2ccc(O)cc2)c2cccc(-c3ccc(O)cc3)c21 0.138

Next molecule up: Oc1ccc(-c2nn(C3CCCC3)c3c(F)cccc23)c(O)c1 0.419

Next molecule up: CC(C)n1nc2c(F)cccc2c1-c1ccc(O)cc1 0.014

Next molecule up: C=CCn1nc(-c2ccc(O)cc2)c2cccc(C(F)(F)F)c21 0.02

Next molecule up: Oc1ccc(-c2n[nH]c3cc(Cl)ccc23)cc1 0.897

Next molecule up: Cc1cc(O)ccc1-c1nn(CC(C)C)c2c(F)cccc12 0.088

Next molecule up: OCCn1nc(-c2ccc(O)cc2O)c2cc(F)ccc21 0.371

Next molecule up: C=CCn1nc2c(C(F)(F)F)cccc2c1-c1ccc(O)cc1 0.005

Next molecule up: CC(C)n1nc(-c2ccc(O)cc2)c2cccc(-c3ccccc3Cl)c21 0.034

Next molecule up: Cc1cc(O)ccc1-c1nn(C2CCCC2)c2c(-c3ccccc3C)cccc12 0.015

Next molecule up: CSc1ccc(-c2cccc3c(-c4ccc(O)cc4)nn(C(C)C)c23)cc1 0.075

Next molecule up: Oc1ccc(-c2nn(-c3ccc(F)c(Cl)c3)c3cc(O)ccc23)c(O)c1 0.063

Next molecule up: Oc1ccc(-c2nn(C3CCCCC3)c3c(C(F)(F)F)cccc23)cc1 0.065

Next molecule up: CCCn1nc(-c2ccc(OC(=O)CC)cc2)c2cccc(Cl)c21 0.328

Next molecule up: CCCCCn1nc(-c2ccc(O)cc2)c2cccc(Cl)c21 0.095

Next molecule up: Cn1nc(-c2ccc(O)cc2)c2cccc(F)c21 0.435

Next molecule up: Cc1cc(O)ccc1-c1nn(C(C)C)c2c(-c3ccccc3C)cccc12 0.004

Next molecule up: Cc1cc(O)ccc1-c1nn(C(C)C)c2c(-c3ccccc3Cl)cccc12 0.021

Next molecule up: Oc1ccc(-c2nn(C3CCCC3)c3c(C(F)(F)F)cccc23)c(O)c1 0.029

Next molecule up: C=CCn1nc2c(Cl)cccc2c1-c1ccc(O)cc1C 0.59

Next molecule up: Cc1cccc2c(-c3ccc(O)cc3)n[nH]c12 0.066

Next molecule up: Oc1ccc(-c2nn(C3CCCC3)c3c(-c4ccccc4Cl)cccc23)cc1 0.142

Next molecule up: CCCCn1nc(-c2ccc(O)cc2)c2cccc(F)c21 0.112

Next molecule up: CC(C)(C)C(=O)Oc1ccc(-c2nn(C3CCCC3)c3c(F)cccc23)cc1 0.667

Next molecule up: CC(C)Cn1nc(-c2ccc(O)cc2O)c2cccc(C(F)(F)F)c21 0.056

Next molecule up: CC(C)n1nc(-c2ccc(O)cc2O)c2cccc(C(F)(F)F)c21 0.041

Next molecule up: Oc1ccc(-c2c3cccc(F)c3nn2C2CCCC2)cc1 0.05

Next molecule up: Cc1cc(O)ccc1-c1nn(C(C)C)c2c(-c3ccco3)cccc12 0.027

Next molecule up: C=CCn1nc2c(C(F)(F)F)cccc2c1-c1ccc(O)cc1C 0.007

Next molecule up: Oc1ccc(-c2nn(-c3ccccc3Cl)c3cc(O)ccc23)c(O)c1 0.095

Next molecule up: CC(C)n1nc(-c2ccc(O)cc2)c2cccc(-c3ccco3)c21 0.053

Next molecule up: Oc1ccc(-c2n[nH]c3c(F)cccc23)cc1 0.196

Next molecule up: Cc1cc(O)ccc1-c1nn(C2CCCC2)c2c(Cl)cccc12 0.036

Next molecule up: Oc1ccc(-c2nn(-c3ccc(Br)cc3)c3cc(O)ccc23)c(O)c1 0.09
